- Assay target: Protein cereblon/Mixed lineage kinase domain-like protein (Homo sapiens, UniProt Q8NB16+Q96SW2)
- Sequence (Q8NB16 whole entry, the tested form may be a part): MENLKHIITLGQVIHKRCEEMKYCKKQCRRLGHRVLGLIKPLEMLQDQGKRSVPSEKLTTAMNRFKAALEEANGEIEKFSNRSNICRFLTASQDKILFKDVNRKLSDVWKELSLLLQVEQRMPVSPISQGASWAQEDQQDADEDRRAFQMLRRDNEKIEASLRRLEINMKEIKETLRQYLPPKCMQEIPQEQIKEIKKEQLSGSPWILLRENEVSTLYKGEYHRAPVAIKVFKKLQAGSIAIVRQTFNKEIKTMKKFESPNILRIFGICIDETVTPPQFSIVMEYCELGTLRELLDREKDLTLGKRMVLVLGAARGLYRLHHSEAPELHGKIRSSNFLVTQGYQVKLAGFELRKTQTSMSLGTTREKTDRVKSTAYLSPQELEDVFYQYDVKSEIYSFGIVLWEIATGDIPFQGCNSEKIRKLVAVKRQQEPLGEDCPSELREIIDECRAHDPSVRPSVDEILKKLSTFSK
- Sequence (Q96SW2 whole entry, the tested form may be a part): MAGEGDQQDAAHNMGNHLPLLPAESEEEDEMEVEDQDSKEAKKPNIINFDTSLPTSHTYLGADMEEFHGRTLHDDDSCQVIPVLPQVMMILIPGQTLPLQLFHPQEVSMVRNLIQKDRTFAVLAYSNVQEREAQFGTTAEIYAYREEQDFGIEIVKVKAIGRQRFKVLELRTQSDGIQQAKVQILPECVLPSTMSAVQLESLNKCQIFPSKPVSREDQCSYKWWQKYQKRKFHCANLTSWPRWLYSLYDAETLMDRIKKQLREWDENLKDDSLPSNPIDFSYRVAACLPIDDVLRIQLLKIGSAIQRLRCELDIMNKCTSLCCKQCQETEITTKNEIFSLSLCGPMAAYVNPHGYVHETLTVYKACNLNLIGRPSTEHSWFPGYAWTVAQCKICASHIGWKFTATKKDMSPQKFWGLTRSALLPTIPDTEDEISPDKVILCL
- Assay details: PROTAC activity at CRBN/MLKL in human HT-29 cells assessed as degraded protein level in cell lysates incubated for 24 hrs measured by capillary immunoassay relative to vehicle treated control
Property measured: pEC50
pEC50 here is simply -log10 of the concentration when that concentration is written in mol/L.

Q: pEC50 for `COc1ccc(C(=O)N2CCC3(CCN(C(=O)CCCCCCCOc4cccc(Nc5[nH]nc(-c6ccc(NS(=O)(=O)C(F)F)cc6)c5C(N)=O)c4)CC3)CC2)cc1N1CCC(=O)NC1=O` ?
Ans: 5.62

---

- Test system: HT-29
- Assay details: Protection against TSZ-induced necroptosis in human HT-29 cells assessed as cell viability incubated for 24 hrs by CellTiter Glo assay
- Condition label: HT-29, 24 h
Property measured: pEC50
Note: pEC50 values are expressed as the negative base-10 logarithm of concentration in M.

Q: pEC50 lookup needed for `COc1ccc(C(=O)N2CCC3(CCN(C(=O)CCCCCCCOc4cccc(Nc5[nH]nc(-c6ccc(NS(=O)(=O)C(F)F)cc6)c5C(N)=O)c4)CC3)CC2)cc1N1CCC(=O)NC1=O` , thanks.
Ans: 5.92

meta.source: ChEMBL document CHEMBL5325492
